test: Plasmodium falciparum growth inhibition, primary screen, strain 3D7, DAPI fluorescence, 100 nL (AID 1184);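 also: parasites grown inside human red blood cells in medium with human serum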; conditions: P. falciparum 3D7 growth, 3 d, higher = more signal
Response key: true (1) means z-score >= -0.2; false (0) means z-score < -0.2.

structure as smiles | label value
COCCCNC(=O)[C@]1(CCC(=O)OC(C)(C)C)N=C(c2ccc(OCCCO)cc2)O[C@@H]1c1ccccc1N=[N+]=[N-] | false (0)
Cc1ccc(S(=O)(=O)N[C@@H]2COC(=O)[C@H](C)COC(=O)CC=C[C@H]2C)cc1 | true (1)
CC(C)C[C@@H]1NC(=O)[C@H]2C[C@@H](C(=O)O)[C@@H](c3ccc(O)cc3)N2C1=O | false (0)
CO[C@@H]1COC(=O)CC=C[C@@H](C)[C@@H]2C=C[C@H](O)[C@@H](COC(=O)CCC[C@H]1C)O2 | true (1)
C#CCCCON=C1C[C@@H](O)[C@@H](O)[C@@H]2[C@@H]3C(=O)N([C@@H](C)c4ccccc4)C(=O)[C@@H]3CC[C@H]12 | false (0)

Prompt: Given the entry "CC(CCN1CCc2nc(-c3ccccc3)c(-c3ccccc3)cc2C1)=NO[C@H](C)c1cn([C@@H]2COC[C@H]2O)nn1" , answer whether its z-score meets or surpasses -0.2.
Completion: true (1)

Prompt: Confirm if z-score reported for the molecule "CO[C@H]1COC(=O)[C@@H]2CCCN2C(=O)[C@@H](C)COC(=O)CC=C[C@@H]1C" is -0.2 or above.
Completion: true (1)

Prompt: Is the recorded value of z-score equal to or greater than -0.2 for this molecule? "COC(=O)[C@@]1(Cc2ccc(F)cc2)[C@H]2c3cc(C(=O)N(C)C)n(Cc4ccc(OC)c(OC)c4)c3C[C@H]2CN1C(=O)c1ccccc1"
Completion: false (0)
